PROTOCOL_NOTES: Water solubility of the compound measured at 25 degreeC
Format: physicochemical
Readings of solubility for the listed compounds
READOUT_LABEL: solubility (mg/mL)

• COc1cc(OCCCS(=O)(=O)[O-])c2c(c1OCCCS(=O)(=O)[O-])CN1C(=O)N3CN4C(=O)N5CN6C(=O)N7CN8C(=O)N9Cc%10c(c(OCCCS(=O)(=O)[O-])cc(OC)c%10OCCCS(=O)(=O)[O-])CN%10C(=O)N(CN%11C(=O)N(CN%12C(=O)N(CN%13C(=O)N(C2)C1(C)C%133C)C4C%125)C6C%117)C8(C)C%109C.[Na+].[Na+].[Na+].[Na+] (stereo not given) = 870
• Cc1c(C)c(OCCCS(=O)(=O)[O-])c2c(c1OCCCS(=O)(=O)[O-])CN1C(=O)N3CN4C(=O)N5CN6C(=O)N7CN8C(=O)N9Cc%10c(c(OCCCS(=O)(=O)[O-])c(C)c(C)c%10OCCCS(=O)(=O)[O-])CN%10C(=O)N(CN%11C(=O)N(CN%12C(=O)N(CN%13C(=O)N(C2)[C@]1(C)[C@]%133C)[C@@H]4[C@@H]5%12)[C@@H]6[C@@H]7%11)[C@]8(C)[C@]%109C.[Na+].[Na+].[Na+].[Na+] = 500
• C[C@]12N3Cc4c(c(OCCCS(=O)(=O)[O-])c5c(c4OCCCS(=O)(=O)[O-])CCC5)CN1C(=O)N1CN4C(=O)N5CN6C(=O)N7CN8C(=O)N9Cc%10c(c(OCCCS(=O)(=O)[O-])c%11c(c%10OCCCS(=O)(=O)[O-])CCC%11)CN%10C(=O)N(CN%11C(=O)N(CN%12C(=O)N(CN(C3=O)[C@]12C)[C@@H]4[C@H]%125)[C@@H]6[C@H]%117)[C@]8(C)[C@@]9%10C.[Na+].[Na+].[Na+].[Na+] = 1000
• CC[C@]12N3Cc4c(c(OCCCS(=O)(=O)[O-])c5ccccc5c4OCCCS(=O)(=O)[O-])CN1C(=O)N1CN4C(=O)N5CN6C(=O)N7CN8C(=O)N9Cc%10c(c(OCCCS(=O)(=O)[O-])c%11ccccc%11c%10OCCCS(=O)(=O)[O-])CN%10C(=O)N(CN%11C(=O)N(CN%12C(=O)N(CN(C3=O)[C@]12CC)[C@@H]4[C@H]%125)[C@@H]6[C@H]%117)[C@]8(CC)[C@@]9%10CC.[Na+].[Na+].[Na+].[Na+] = 670
• Cc1cc(OCCCS(=O)(=O)[O-])c2c(c1OCCCS(=O)(=O)[O-])CN1C(=O)N3CN4C(=O)N5CN6C(=O)N7CN8C(=O)N9Cc%10c(c(OCCCS(=O)(=O)[O-])cc(C)c%10OCCCS(=O)(=O)[O-])CN%10C(=O)N(CN%11C(=O)N(CN%12C(=O)N(CN%13C(=O)N(C2)C1(C)C%133C)C4C%125)C6C%117)C8(C)C%109C.[Na+].[Na+].[Na+].[Na+] (mixture of isomers) = 600

###

PROTOCOL_NOTES: Hemolytic activity in Sprague-Dawley rat erythrocytes assessed as hemolysis at 0.51 to 32.8 mg/ml
Format: toxicity, cell-based, Erythrocyte
CONDITION_INFO: dose 0.51-32.8 mg/ml, read-out: Activity
READOUT_LABEL: hemolysis

• C[C@]12N3Cc4c(c(OCCCS(=O)(=O)[O-])c5c(c4OCCCS(=O)(=O)[O-])CCC5)CN1C(=O)N1CN4C(=O)N5CN6C(=O)N7CN8C(=O)N9Cc%10c(c(OCCCS(=O)(=O)[O-])c%11c(c%10OCCCS(=O)(=O)[O-])CCC%11)CN%10C(=O)N(CN%11C(=O)N(CN%12C(=O)N(CN(C3=O)[C@]12C)[C@@H]4[C@H]%125)[C@@H]6[C@H]%117)[C@]8(C)[C@@]9%10C.[Na+].[Na+].[Na+].[Na+] = < 5%
